Tested on: sub-genomic HCV replicon of genotype 1a (cell line W11.8)
Assay: Activity determination using the ELISA and the sub-genomic replicon 1a cell line (NS5A protein level)
Assay type: cell-based
Conditions: Hepatitis C virus
Test readout: IC50
Number first, unit second.

Some solved cases for reference:
Compound	Assay target	Test readout	Value
COC(=O)N[C@H](C(=O)N1C[C@@H](C)C[C@H]1c1nc(-c2ccc(-c3ccc(-c4ccc5[nH]c([C@@H]6CC[C@H](C)N6C(=O)[C@@H](NC(=O)OC)C(C)C)nc5c4)cc3)cc2)c[nH]1)C(C)C [Compound 18]	sub-genomic HCV replicon of genotype 1a (cell line W11.8)	IC50	8.5 pM
COC(=O)N[C@H](C(=O)N1CCC[C@H]1c1ncc(-c2ccc(-c3ccc(-c4ccc5[nH]c([C@@H]6CCCN6C(=O)[C@@H](NC(=O)OC)C(C)C)nc5c4)cc3)cc2)[nH]1)C(C)C [Compound 4]	sub-genomic HCV replicon of genotype 1a (cell line W11.8)	IC50	140 pM
COC(=O)NC(C(=O)N1[C@@H](C)CC[C@H]1c1nc2cc(-c3ccc(-c4ccc(-c5cnc([C@@H]6CC[C@H](C)N6C(=O)[C@@H](NC(=O)OC)C(C)C)[nH]5)cc4)cc3)ccc2[nH]1)C(C)C (stereo partly shown) [Compound 13]	sub-genomic HCV replicon of genotype 1a (cell line W11.8)	IC50	36 pM

Quick one: IC50 for COC(=O)N[C@H](C(=O)N1C[C@@H](C)C[C@H]1c1nc(-c2ccc(-c3ccc(-c4ccc5nc([C@@H]6C[C@H](C)CN6C(=O)[C@@H](NC(=O)OC)C(C)C)[nH]c5c4)cc3)cc2)c[nH]1)C(C)C [Compound 5] ?
4.1 pM

Reference source: patent US8779156B2
